- assay-details: chemical recovery from spiked human plasma; higher = better extraction
- condition: pooled human plasma; extraction method: SPE only (HLB 96-well), PES comparison experiment
Catalogue of molecules with associated chemical recovery

Sample answers from the record:
Clc1ccc(Cl)c(-c2cc(Cl)c(Cl)cc2Cl)c1 [PCB101]: 14%
Cc1nnc(-c2ccccc2)c(=O)n1N [Metamitron]: 92.5%
CC(C(=O)O)c1cccc(C(=O)c2ccccc2)c1 (stereo unspecified) [Ketoprofen]: 53.1%
CN(C)C(=O)Nc1ccccc1 [Fenuron]: 49.4%

Query: Quick one: give measured chemical recovery for C[C@H]1C[C@@H]2[C@H]([C@@H](O)C[C@@]3(C)[C@H]2CC[C@]3(O)C(=O)CO)[C@@]2(C)C=CC(=O)C=C12 [6alpha Methylprednisolone]
Result: 53.6%

* * *

- assay-details: chemical recovery by SPE of plasma after PDMS sampling; higher = better extraction
- condition: pooled human plasma; extraction method: HLB SPE of plasma after PES; equilibration time (d): 1
Catalogue of compounds with associated chemical recovery by SPE of plasma
Numeric answer only, unit % assumed.

Query: Quick one: give measured chemical recovery by SPE of plasma for CO/N=C(/C1=NOCCO1)c1ccccc1Oc1ncnc(Oc2ccccc2Cl)c1F [Fluoxastrobin]
Result: 0.73

Query: Quick one: give measured chemical recovery by SPE of plasma for CC[N+](CC)(CC(=O)Nc1c(C)cccc1C)Cc1ccccc1 [Denatonium]
Result: 56.4

Query: Quick one: give measured chemical recovery by SPE of plasma for CCN(CCCCOC(=O)c1ccc(OC)c(OC)c1)C(C)Cc1ccc(OC)cc1 (stereo not given) [Mebeverine]
Result: 0.287

Query: Quick one: give measured chemical recovery by SPE of plasma for CC(Cc1ccc(C(C)(C)C)cc1)CN1CCCCC1 (stereo not given) [Fenpropidin]
Result: 0.126

Query: Quick one: give measured chemical recovery by SPE of plasma for c1ccc(-c2ccccc2-c2ccccc2)cc1 [o-Terphenyl]
Result: 2.44

* * *

- assay-details: chemical recovery from spiked human plasma; higher = better extraction
- condition: pooled human plasma; extraction method: solvent precipitation (ACN + hexane)
endpoint-name: chemical recovery (%)
Numeric answer only, unit % assumed.

Sample answers from the record:
CCCN(CCOc1c(Cl)cc(Cl)cc1Cl)C(=O)NC=O: 71.3
NS(=O)(=O)c1cc(C(=O)O)c(NCc2ccco2)cc1Cl [Furosemide]: 69.3

# next compound below
Query: Quick one: give measured chemical recovery for "Nc1ccc(S(=O)(=O)Nc2nccs2)cc1"
Result: 69.2

* * *

- assay-details: chemical recovery from spiked human plasma; higher = better extraction
- condition: pooled human plasma; extraction method: SPE only (HLB 96-well), PES comparison experiment
endpoint-name: chemical recovery (%)
Numeric answer only, unit % assumed.

Query: Quick one: give measured chemical recovery for "Cc1ccc(NC(=O)N(C)C)cc1Cl"
Result: 50.6

Query: Quick one: give measured chemical recovery for "CCCN(CCC)c1c([N+](=O)[O-])cc(S(N)(=O)=O)cc1[N+](=O)[O-]"
Result: 49.6

Query: Quick one: give measured chemical recovery for "COC[P+](c1ccccc1)(c1ccccc1)c1ccccc1"
Result: 48.7

Query: Quick one: give measured chemical recovery for CCCCC(C#N)(Cn1cncn1)c1ccc(Cl)cc1 (stereo unspecified)
Result: 48.5

Query: Quick one: give measured chemical recovery for "C[C@]12CCC(=O)C=C1CC[C@@H]1[C@@H]2CC[C@]2(C)C(=O)CC[C@@H]12"
Result: 49.8

Query: Quick one: give measured chemical recovery for "CN(C/C=C/C#CC(C)(C)C)Cc1cccc2ccccc12"
Result: 50
